target: dopamine 2 receptor (Rattus norvegicus); construct: membrane fractions prepared from the brain a Wistarstrain male rat; test: [3H]spiperone binding assay (affinity for dopamine 2 receptor); conditions: rat striatal membranes, 0.5 nM [3H] spiperone, 37° C., 10 minutes
Sequence (P61169 whole entry): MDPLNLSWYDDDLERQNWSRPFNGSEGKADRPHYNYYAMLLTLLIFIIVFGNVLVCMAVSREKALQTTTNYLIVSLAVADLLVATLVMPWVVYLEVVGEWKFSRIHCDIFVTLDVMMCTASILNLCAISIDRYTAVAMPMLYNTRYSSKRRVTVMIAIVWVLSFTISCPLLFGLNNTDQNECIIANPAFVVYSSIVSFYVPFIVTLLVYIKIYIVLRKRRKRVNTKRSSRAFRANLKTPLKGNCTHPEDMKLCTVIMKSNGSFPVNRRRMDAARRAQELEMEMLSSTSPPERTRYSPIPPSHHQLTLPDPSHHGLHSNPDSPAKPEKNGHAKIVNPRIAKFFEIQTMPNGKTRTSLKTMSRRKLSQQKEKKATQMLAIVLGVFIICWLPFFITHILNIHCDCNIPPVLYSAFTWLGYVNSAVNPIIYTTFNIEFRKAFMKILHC
RECORDED_METRIC: Ki

COMPOUND	RECORDED_METRIC	VALUE_REPORTED
O=C1COc2cc(OCCCN3CCN(Cc4ccccc4)CC3)ccc21 [Compound 1182]	Ki	> 0.4 µM

Value sought for every listed compound: Ki.
1. O=C1COc2cc(OCCCN3CCC(Cc4ccccc4)CC3)ccc21 [Compound 1146]
2. CN1C(=O)Cc2cnc(N3CCN(CCCOc4ccc5c(c4)OCC5=O)CC3)nc21 [Compound 1186]
3. O=C1COc2cc(OCCCN3CCC(O)(c4ccc(Cl)cc4)CC3)ccc21 [Compound 1154]

stdout:
1. > 0.4 µM
2. > 0.4 µM
3. > 0.4 µM
